# assayText: Solubility of NMS-E354 free base in water and early formulation vehicles
# Assay type: physicochemical
# experimentalContext: 10% Polysorbate 80 in 5% dextrose solution, aqueous with cosolvent or surfactant or cyclodextrin; read-out: solubility
resultType: solubility

Field solubility (entry "NC(=O)c1cc(-c2ccnc(N)n2)[nH]c1-c1ccc(Cl)cc1Cl" ) reads ~4000 µg/mL
